Please provide measured IC50, Human ENTPD2 NIH/3T3 Assay for the entries that follow.
- tested system: T1, human ENTPD2 expressed on cells (human, UniProt Q9Y5L3 1-495)
- T1 sequence: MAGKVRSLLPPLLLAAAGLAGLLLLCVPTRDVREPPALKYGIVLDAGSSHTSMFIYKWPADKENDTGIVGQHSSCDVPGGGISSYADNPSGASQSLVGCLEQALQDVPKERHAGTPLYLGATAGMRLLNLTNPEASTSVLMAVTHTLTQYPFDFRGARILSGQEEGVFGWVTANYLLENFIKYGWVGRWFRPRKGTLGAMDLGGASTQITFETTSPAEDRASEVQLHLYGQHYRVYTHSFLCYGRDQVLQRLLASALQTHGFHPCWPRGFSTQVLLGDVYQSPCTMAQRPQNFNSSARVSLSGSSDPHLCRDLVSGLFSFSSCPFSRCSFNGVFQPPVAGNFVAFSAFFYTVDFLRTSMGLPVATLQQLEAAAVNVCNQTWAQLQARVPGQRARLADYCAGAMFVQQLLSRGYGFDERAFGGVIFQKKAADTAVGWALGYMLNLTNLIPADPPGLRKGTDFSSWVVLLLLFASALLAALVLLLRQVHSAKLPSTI
- procedure summary: cell-based or functional assay
The response must be a number in nM with no trailing unit.

Exercise: Give recorded IC50, Human ENTPD2 NIH/3T3 Assay. ANTI-HUMAN ENTPD2 MAB17 (antibody, human IgG1, kappa, V domains shown) VH: EVQLQQFGAELVKPGASVKISCKASGYTFTDYNMDWVKQSHGKSLEWIGDINPKYDISTYNQQFKGKATLTVDKSSSTAYMELRSLTSEDTAVYYCARRGFFLYYGINYYYFDVWGAGTTVTVSS VL: QIVLTQSPAIMSASLGEEITLTCSASSSVSYIHWYQQKSGTSPTLLIYSTSNLASGVPSRFSGSGSGTFYSLTISSVEAEDAADYYCHQWSSYPWTFGGGTKLEIKR
Solution: 0.6

Exercise: Please report the measured IC50, Human ENTPD2 NIH/3T3 Assay for ANTI-HUMAN ENTPD2 MAB3 (antibody, human IgG1, kappa, V domains shown, humanized from mAb17; human IgG1, kappa; also called Anti-ENTPD2 mAb3) VH: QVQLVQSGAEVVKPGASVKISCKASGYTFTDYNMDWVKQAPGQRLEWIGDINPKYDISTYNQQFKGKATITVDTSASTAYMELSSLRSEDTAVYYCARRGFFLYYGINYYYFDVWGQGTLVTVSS VL: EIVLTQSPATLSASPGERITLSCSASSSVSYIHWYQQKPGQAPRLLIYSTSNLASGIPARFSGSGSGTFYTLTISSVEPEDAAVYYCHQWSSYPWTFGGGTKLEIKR
Solution: 1.8

Exercise: Give the measured IC50, Human ENTPD2 NIH/3T3 Assay for ANTI-HUMAN ENTPD2 MAB4 (antibody, human IgG1, kappa, V domains shown, humanized and optimized from mAb16; human IgG1, kappa; also called Anti-ENTPD2 mAb4) VH: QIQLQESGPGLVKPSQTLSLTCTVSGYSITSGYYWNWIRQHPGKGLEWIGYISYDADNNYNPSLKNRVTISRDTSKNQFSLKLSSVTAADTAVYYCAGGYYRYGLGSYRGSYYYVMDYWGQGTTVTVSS VL: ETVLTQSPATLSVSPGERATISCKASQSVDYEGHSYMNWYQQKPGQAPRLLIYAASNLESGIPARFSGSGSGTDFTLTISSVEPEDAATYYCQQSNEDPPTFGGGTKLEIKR
Solution: 0.2

Exercise: Output measured IC50, Human ENTPD2 NIH/3T3 Assay for this item: ANTI-HUMAN ENTPD2 MAB5 (antibody, human IgG1, kappa, V domains shown, humanized and optimized from mAb16; human IgG1, kappa; also called Anti-ENTPD2 mAb5) VH: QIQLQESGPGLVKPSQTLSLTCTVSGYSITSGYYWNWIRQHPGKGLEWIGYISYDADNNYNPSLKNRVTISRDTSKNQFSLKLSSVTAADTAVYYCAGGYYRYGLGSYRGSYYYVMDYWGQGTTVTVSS VL: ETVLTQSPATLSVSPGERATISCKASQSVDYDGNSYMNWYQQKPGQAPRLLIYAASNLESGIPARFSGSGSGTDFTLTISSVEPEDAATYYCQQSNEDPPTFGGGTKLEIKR
Solution: 0.3
